B1: library; a variant is named by its letters at N, in order (parent)
chain: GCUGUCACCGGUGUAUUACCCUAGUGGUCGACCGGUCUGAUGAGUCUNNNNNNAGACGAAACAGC

variants of: B1; test: normalized RNA/DNA level with ligand (relative to sTRSVctl = 100) (log10 (% of sTRSVctl)); ligand: hypoxanthine (xanthine aptamer); higher = less ribozyme self-cleavage, higher mRNA level; details: ligand concentration (+) RNA-Seq: 5 mM, HEK293T, reporter: mCherry (pCS4076), ligand present: yes
endpoint.label: normalized RNA/DNA level with ligand (log10)
API note: the answer field is a bare number with no unit suffix.

Consider the reported normalized RNA/DNA level with ligand (log10) for these variants:
mutation.descriptor	endpoint.value
UAAUAU	1.91
CGUGGU	1.95
CUUUAU	1.88
CUCAAA	1.92
ACGGCA	1.9
AGCAUC	2.07
UAUCUG	1.9
CAAGUC	1.95
UAAGUU	1.97
CACGAA	1.87

State, in one line, measured normalized RNA/DNA level with ligand (log10) of `GUAGCC`
1.98

Query normalized RNA/DNA level with ligand (log10) for `CCAUGA`
1.99

Give the value of normalized RNA/DNA level with ligand (log10) reported for the following: `AGGCGU`
1.94

Consider the variant `CACGCA` . State its measured normalized RNA/DNA level with ligand (log10).
1.92

Please supply the value of reported normalized RNA/DNA level with ligand (log10) for the item `CUGUGU`
1.95

Complete the entry with normalized RNA/DNA level with ligand (log10) for `AAUAAC`
1.92

Identify normalized RNA/DNA level with ligand (log10) associated with the variant `UUGAAU`
1.95
